Origin of values: ChEMBL document CHEMBL4725334

# TEST PROTOCOL: Total clearance in Sprague-Dawley rat at 0.5 mg/kg, iv and 1 mg/kg, po administered as cassette dosing measured for 24 hrs by LC-MS/MS analysis
# Assay type: ADME, organism-based
# SETUP CONDITIONS: in vivo
ATTRIBUTE MEASURED: clearance (mL/min/kg)
// return numeric value only (unit: mL/min/kg, not printed)

{"columns": ["COMPOUND", "clearance [mL/min/kg]"],
 "data": [
  ["Cc1ccc(-c2c(C)c(-c3ccc4c(c3C)CCCO4)c(C(OC(C)(C)C)C(=O)O)c(C)c2NS(C)(=O)=O)cc1C (configuration not stated)", 6.99]
]}

Query block: Specify clearance for "Cc1nc2ccccc2c(-c2ccc3c4c(ccnc24)CCO3)c1[C@H](OC(C)(C)C)C(=O)O" and stop.
Result block: 1.09

----------
# TEST PROTOCOL: Metabolic stability in human liver microsomes assessed as parent compound remaining at 0.5 uM incubated for 30 mins by LC-MS/MS analysis
# Format: ADME, Microsome
# SETUP CONDITIONS: read-out: Stabilty
// reported remaining at 0.5 h, 0.5 µM per item
// return numeric value only (unit: %, not printed)

{"columns": ["COMPOUND", "UOM", "remaining at 0.5 h, 0.5 µM"],
 "data": [
  ["Cc1ccc(-c2c(C)c(-c3ccc4c(c3C)CCCO4)c(C(OC(C)(C)C)C(=O)O)c(C)c2NS(C)(=O)=O)cc1C (configuration not stated)", "%", 59]
]}

Here is another compound to look at.
Query block: Specify remaining at 0.5 h, 0.5 µM for "Cc1nc2ccccc2c(-c2ccc3c4c(ccnc24)CCO3)c1[C@H](OC(C)(C)C)C(=O)O" and stop.
Result block: 98

----------
# TEST PROTOCOL: Metabolic stability in rat liver microsomes assessed as parent compound remaining at 0.5 uM incubated for 30 mins by LC-MS/MS analysi
# Format: ADME, Microsome
# SETUP CONDITIONS: read-out: Stabilty
ATTRIBUTE MEASURED: remaining at 0.5 h, 0.5 µM (%)
// return numeric value only (unit: %, not printed)

{"columns": ["COMPOUND", "ATTRIBUTE MEASURED", "UOM", "OBSERVED"],
 "data": [
  ["Cc1nc2ccccc2c(-c2ccc3c4c(ccnc24)CCO3)c1[C@H](OC(C)(C)C)C(=O)O [BI-224436]", "remaining at 0.5 h, 0.5 µM", "%", 100]
]}

Here is another compound to look at.
Query block: Specify remaining at 0.5 h, 0.5 µM for Cc1ccc(-c2c(C)c(-c3ccc4c(c3C)CCCO4)c(C(OC(C)(C)C)C(=O)O)c(C)c2NS(C)(=O)=O)cc1C (configuration not stated) and stop.
Result block: 61

----------
# TEST PROTOCOL: Half-life in Sprague-Dawley rat at 0.5 mg/kg, iv and 1 mg/kg, po administered as cassette dosing measured for 24 hrs by LC-MS/MS analysis
# Format: ADME, organism-based
# SETUP CONDITIONS: in vivo
ATTRIBUTE MEASURED: half-life (h)
// return numeric value only (unit: h, not printed)

{"columns": ["MOLECULE", "half-life (h)"],
 "data": [
  ["Cc1nc2ccccc2c(-c2ccc3c4c(ccnc24)CCO3)c1[C@H](OC(C)(C)C)C(=O)O", 4.2]
]}

Here is another molecule to look at.
Query block: Specify half-life for Cc1ccc(-c2c(C)c(-c3ccc4c(c3C)CCCO4)c(C(OC(C)(C)C)C(=O)O)c(C)c2NS(C)(=O)=O)cc1C (configuration not stated) and stop.
Result block: 3.1
